inhibition listing for selected molecules.
Biological target: Human immunodeficiency virus type 1 reverse transcriptase (Human immunodeficiency virus 1)
Assay: Inhibition of HIV1 reverse transcriptase at 50 uM
Field format: number, assumed %, no unit text.

Take a look at these entries with their results.
> print(dat)
                            molecule.smiles                     target.or.test.system  test.value
1  O=C1Cc2ccc(-c3ccc(C(F)(F)F)cc3)cc2C(=O)N1O  Human immunodeficiency virus type 1 reverse transcriptase (Human immunodeficiency virus 1)          40
2  O=C(Nc1ccc2c(c1)C(=O)N(O)C(=O)C2)c1ccccc1  Human immunodeficiency virus type 1 reverse transcriptase (Human immunodeficiency virus 1)          40
3    O=C1Cc2ccc(-c3ccc(O)c(O)c3)cc2C(=O)N1O  Human immunodeficiency virus type 1 reverse transcriptase (Human immunodeficiency virus 1)          70

The molecule listed as `O=C1Cc2ccc(Br)cc2C(=O)N1O` has a reported inhibition of 40

inhibition recorded for this molecule, `O=C1Cc2ccc(I)cc2C(=O)N1O` , is 40

// inhibition lookup, molecule = `O=C(Nc1ccc2c(c1)C(=O)N(O)C(=O)C2)c1ccc(F)cc1` , result: 40

----------
Test system: Human immunodeficiency virus 1
Assay: Selectivity ratio of IC50 for HIV1 RNase H to IC50 for HIV1 integrase
Parameter: Ratio IC50. Scope: all listed entries.
Quick one: just the number, no unit, thanks!

Example cases with answers are listed next.
> print(dat)
                            molecule.smiles           target.or.test.system  test.value
1  O=C(Cc1ccc(F)cc1)Nc1ccc2c(c1)C(=O)N(O)C(=O)C2  Human immunodeficiency virus 1         272
2  O=C(Nc1ccc2c(c1)C(=O)N(O)C(=O)C2)c1ccccc1  Human immunodeficiency virus 1         4.7
3  O=C1Cc2ccc(-c3ccc(C(F)(F)F)cc3)cc2C(=O)N1O  Human immunodeficiency virus 1         5.9
4    O=C1Cc2ccc(-c3ccc(O)c(O)c3)cc2C(=O)N1O  Human immunodeficiency virus 1        11.8
5                  O=C1Cc2ccc(O)cc2C(=O)N1O  Human immunodeficiency virus 1          17

// next entry
Sure, the documented Ratio IC50 for `O=C(Nc1ccc2c(c1)C(=O)N(O)C(=O)C2)c1ccc(F)cc1` is 17.3

----------
Experiment: Inhibition of HIV1 RNase H
Design: species or system Human immunodeficiency virus 1
Quantity name: pIC50
As a rule, pIC50 stands for the negative log10 of the concentration, concentration in M.

Below are worked cases with known answers.
> print(dat)
                            molecule.smiles  quantity.name  test.value
1  O=C(Nc1ccc2c(c1)C(=O)N(O)C(=O)C2)c1ccc(F)cc1          pIC50        5.15
2                     O=C1Cc2ccccc2C(=O)N1O          pIC50        5.23

So for `O=C1Cc2ccc(-c3ccc(C(F)(F)F)cc3)cc2C(=O)N1O` , the logged pIC50 turned out to be 4.97

The molecule listed as `O=C(Cc1ccc(F)cc1)Nc1ccc2c(c1)C(=O)N(O)C(=O)C2` shows pIC50 equal to 4.45

----------
Target: Human immunodeficiency virus type 1 integrase (Human immunodeficiency virus 1, UniProt Q7ZJM1)
Sequence (Q7ZJM1 whole entry): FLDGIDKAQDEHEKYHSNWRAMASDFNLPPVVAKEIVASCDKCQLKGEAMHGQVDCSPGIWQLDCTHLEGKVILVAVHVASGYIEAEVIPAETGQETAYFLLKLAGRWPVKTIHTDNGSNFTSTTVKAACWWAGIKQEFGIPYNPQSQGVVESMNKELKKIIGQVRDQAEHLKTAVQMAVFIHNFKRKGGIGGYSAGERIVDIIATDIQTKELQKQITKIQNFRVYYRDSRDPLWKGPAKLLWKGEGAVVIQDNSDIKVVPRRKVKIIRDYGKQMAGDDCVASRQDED
IC50 values by entry
Give the value in µM but do not write µM after it.

> print(dat)
                            molecule.smiles  quantity.name  uom  test.value
1  O=C(Cc1ccc(F)cc1)Nc1ccc2c(c1)C(=O)N(O)C(=O)C2           IC50   µM        0.75
2                 O=C1Cc2ccc(Br)cc2C(=O)N1O           IC50   µM         1.4

Please find the next compound below.
The compound `O=C(Cc1ccccc1)Nc1ccc2c(c1)C(=O)N(O)C(=O)C2` showed IC50 equal to 7.79

----------
Experiment: Inhibition of HIV1 RNase H
Set-up: species or system Human immunodeficiency virus 1
pIC50: −log10 of the molar value.
Quantity name: pIC50

Worked cases, answers included:
> print(dat)
                            molecule.smiles  test.value
1  O=C(Cc1ccccc1)Nc1ccc2c(c1)C(=O)N(O)C(=O)C2      < 4.10
2                 O=C1Cc2ccc(Br)cc2C(=O)N1O      < 4.02

Let us examine a further case.
For this molecule ( `O=C1Cc2ccc(-c3ccc(F)cc3)cc2C(=O)N1O` ), measured pIC50 is 4.65
